organism: Homo sapiens; experiment: Selectivity index, ratio of IC50 for inhibition of human AChE using acetylthiocholine iodide as substrate to inhibition of human BuChE using butyrylthiocholine iodide as substrate
We begin with a simple list: items and their reported Ratio IC50.
Reply: number alone, nothing else.

Solved cases below.
### Prompt Which value of Ratio IC50 has been reported for `COc1c2c(cc3c1OCO3)[C@]13C=C[C@H](OC)C[C@@H]1[N@](C2)C[C@H]3OC(=O)c1ccc2ccccc2c1` in the records?
### Response 5.2

### Prompt Which value of Ratio IC50 has been reported for `COc1c2c(cc3c1OCO3)[C@]13C=C[C@H](OC)C[C@@H]1[N@](C2)C[C@H]3OC(=O)c1cccc([N+](=O)[O-])c1` in the records?
### Response 0.6

### Prompt Which value of Ratio IC50 has been reported for `COc1c2c(cc3c1OCO3)[C@]13C=C[C@H](OC)C[C@@H]1[N@](C2)C[C@H]3OC(=O)c1ccoc1` in the records?
### Response 1.9

### Prompt Which value of Ratio IC50 has been reported for `COc1c2c(cc3c1OCO3)[C@]13C=C[C@H](OC)C[C@@H]1[N@](C2)C[C@H]3OC(=O)c1ccccc1C` in the records?
### Response 195

Let's switch to this molecule now.
### Prompt Which value of Ratio IC50 has been reported for `COc1c2c(cc3c1OCO3)[C@]13C=C[C@H](OC)C[C@@H]1[N@](C2)C[C@H]3OC(=O)c1ccccc1[N+](=O)[O-]` in the records?
### Response 23

###

We begin with a simple list: items and their reported Ratio IC50.
species: Homo sapiens; test: Selectivity index, ratio of IC50 for inhibition of human AChE using acetylthiocholine iodide as substrate to inhibition of human BuChE using butyrylthiocholine iodide as substrate

Solved cases below.
### Prompt Which value of Ratio IC50 has been reported for `COc1c2c(cc3c1OCO3)[C@]13C=C[C@H](OC)C[C@@H]1[N@](C2)C[C@H]3OC(=O)c1ccccc1` in the records?
### Response > 26

### Prompt Which value of Ratio IC50 has been reported for `COc1c2c(cc3c1OCO3)[C@]13C=C[C@H](OC)C[C@@H]1[N@](C2)C[C@H]3OC(=O)c1cccc(C)c1` in the records?
### Response > 116

### Prompt Which value of Ratio IC50 has been reported for `COc1c2c(cc3c1OCO3)[C@]13C=C[C@H](OC)C[C@@H]1[N@](C2)C[C@H]3OC(=O)c1cccc2ccccc12` in the records?
### Response > 1000

### Prompt Which value of Ratio IC50 has been reported for `COc1ccccc1C(=O)O[C@@H]1C[N@@]2Cc3c(cc4c(c3OC)OCO4)[C@@]13C=C[C@H](OC)C[C@H]23` in the records?
### Response > 235

### Prompt Which value of Ratio IC50 has been reported for `COc1c2c(cc3c1OCO3)[C@]13C=C[C@H](OC)C[C@@H]1[N@](C2)C[C@H]3OC(=O)c1ccc(C)cc1` in the records?
### Response > 4

Let's switch to this molecule now.
### Prompt Which value of Ratio IC50 has been reported for `COc1cccc(C(=O)O[C@@H]2C[N@@]3Cc4c(cc5c(c4OC)OCO5)[C@@]24C=C[C@H](OC)C[C@H]34)c1` in the records?
### Response > 16

These data points were gathered from ChEMBL document CHEMBL4616657.
